Target: human thrombocytes
Experiment: Inhibition of binding of ^3 H-BIBU 52 to human thrombocytes (table: Fibrinogen binding test)
Conditions: ^3 H-BIBU 52 (5 nM), human thrombocytes in plasma, ambient temperature, 20 minutes
Counter-ions that a name gives are not always drawn.
Value Type: IC50 (nM)

Some entries whose results are on file:
>  <Compound>
O=C(O)CC[C@H]1CC[C@H](NC(=O)N2CCN(c3ccncc3)CC2)CC1 [5(6), hydrochloride]

>  <IC50 [nM]>
0.25

$$$$
>  <Compound>
O=C(CC(=O)N1CCN(c2ccncc2)CC1)N[C@H]1CC[C@H](C(=O)O)CC1 [5(7), hydrochloride]

>  <IC50 [nM]>
0.23

$$$$
>  <Compound>
O=C(O)CCN1CCC(NC(=O)N2CCN(c3ccncc3)CC2)CC1 [5(8), dihydrochloride]

>  <IC50 [nM]>
0.41

$$$$

(P) O=C(O)CN1CCC(NC(=O)N2CCN(c3ccncc3)CC2)CC1
(Q) O=C(CCN1CCN(c2ccncc2)CC1)N[C@H]1CC[C@H](C(=O)O)CC1 [Example 5, dihydrochloride]
Req: Record comparison, field IC50: mark the lower of P and Q . To answer, give the label that identifies your chosen option.
Resp: Q
(Q: 0.21 nM, P: 0.43 nM)

Reference for the values: patent US5700801A
